# Test system: murine dermal fibroblasts
# Experiment description: RNA-Seq of newborn murine dermal fibroblasts
# Format: cell-based, mouse
# Measurement context: 10^−7 M, 24 h
Consider the following compounds; for each one, report its Syt12 expression level.
// print number alone

Sample CC(C)CCC[C@](C)(O)[C@H]1CC[C@H]2[C@@H]3CC=C4C[C@@H](O)CC[C@]4(C)[C@H]3CC[C@@]21C [20(OH)C, 20-hydroxycholesterol, reference compound] ; Syt12 expression level observed: 1.318

Sample C=C1CCC(O)CC1=CC=C1CCCC2(C)C1CCC2C(C)(O)CC(O)CC(C)C (stereo not shown) ; Syt12 expression level observed: 0.9907

Sample C=C1/C(=C\C=C2/CCC[C@]3(C)[C@@H]([C@H](C)CCCC(C)(C)O)CC[C@@H]23)C[C@@H](O)C[C@@H]1O [1,25(OH)2D3, reference compound] ; Syt12 expression level observed: 0.9903

Sample C=C1C(=CC=C2CCCC3(C)C2CCC3C(C)(O)CC(O)CC(C)C)CC(O)CC1O (stereo not shown) ; Syt12 expression level observed: 0.9828
